Target: UniProt P37058
Sequence (P37058 1-310): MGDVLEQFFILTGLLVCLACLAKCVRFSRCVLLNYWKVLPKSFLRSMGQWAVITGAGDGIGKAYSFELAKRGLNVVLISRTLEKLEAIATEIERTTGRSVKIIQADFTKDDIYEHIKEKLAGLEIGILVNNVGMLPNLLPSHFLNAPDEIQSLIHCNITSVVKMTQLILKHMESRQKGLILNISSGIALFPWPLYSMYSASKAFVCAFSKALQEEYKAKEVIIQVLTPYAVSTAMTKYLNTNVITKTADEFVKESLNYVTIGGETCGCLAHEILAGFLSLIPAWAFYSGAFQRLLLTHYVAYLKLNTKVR
Test: 17β-HSD3 scintillation proximity assay (SPA)
Type: biochemical
Set-up: made in house; CHAPS-solubilised 100,000 x g supernatant
Details: read-out: IC50, 17β-HSD3 biochemical activity
property_label: IC50 (nM)
Number in nM, nothing else.

Challenge: Returns the measured IC50 for the input molecule. Input: "COc1ccccc1CCNC(=O)c1cc(Oc2ccccc2)ccc1NC(=O)c1ccc(O)c(Cl)c1"
Response given: 60

====

biological target: UniProt:P37058; assay: 17β-HSD3 SEAP assay (PSA reporter) in MDA MB 453/17β-HSD3 cells; assay type: cell-based; design: expressed in transfected cells; conditions: MDA-MB453-17β-HSD3 cells, PSA-SEAP reporter; read-out: IC50, 17β-HSD3 cell based activity
property_label: IC50 (nM)
Number in nM, nothing else.

Challenge: Returns the measured IC50 for the input compound. Input: "COc1ccccc1CCNC(=O)c1cc(Oc2ccccc2)ccc1NC(=O)c1ccc(O)c(Cl)c1"
Response given: 300
